Cannabinoid receptor 1 (Rattus norvegicus, UniProt P20272) Ki data
Sequence (P20272 whole entry): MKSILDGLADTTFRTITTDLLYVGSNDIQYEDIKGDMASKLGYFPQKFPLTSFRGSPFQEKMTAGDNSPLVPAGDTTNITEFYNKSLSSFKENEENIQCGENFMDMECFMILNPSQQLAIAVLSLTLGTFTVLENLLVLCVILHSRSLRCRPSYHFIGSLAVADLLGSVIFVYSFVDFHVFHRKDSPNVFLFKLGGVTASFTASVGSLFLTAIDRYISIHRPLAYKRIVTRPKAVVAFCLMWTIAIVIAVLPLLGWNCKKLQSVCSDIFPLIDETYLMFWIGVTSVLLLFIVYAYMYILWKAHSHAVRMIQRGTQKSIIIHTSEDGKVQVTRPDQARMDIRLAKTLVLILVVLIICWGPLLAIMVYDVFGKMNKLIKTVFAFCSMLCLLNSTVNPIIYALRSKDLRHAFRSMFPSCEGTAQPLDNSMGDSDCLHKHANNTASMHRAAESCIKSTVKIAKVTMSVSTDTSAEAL
Give the number; nM is assumed, so skip it.

Give its Ki value. Item: Cc1cccc(CCCC/C=C\C/C=C\C/C=C\C/C=C\CCCC(=O)N[C@H](C)CO)c1
344

Request: C[C@H](CO)NC(=O)CCC/C=C\C/C=C\C/C=C\C/C=C\CCCCc1cccc(Cl)c1
89.4

Request: C[C@H](CO)NC(=O)CCC/C=C\C/C=C\C/C=C\C/C=C\CCCc1ccccc1
69.2

----------
Cannabinoid receptor 1 (Rattus norvegicus) pKi data
Please note pKi is a logarithmic value: minus log10 of concentration in mol/L. Answer with that number alone.

Give its pKi value. Item: C[C@H](CO)NC(=O)CCC/C=C\C/C=C\C/C=C\C/C=C\CCCCc1cccc2ccccc12
6.17

Request: C[C@H](CO)NC(=O)CCC/C=C\C/C=C\C/C=C\C/C=C\CCCCc1cccc(Br)c1
7.02

Request: C[C@H](CO)NC(=O)CCC/C=C\C/C=C\C/C=C\C/C=C\CCCCc1ccc(Br)cc1
8.05

Request: C[C@H](CO)NC(=O)CCC/C=C\C/C=C\C/C=C\C/C=C\CCCCCc1ccoc1
6.77

Request: C[C@H](CO)NC(=O)CCC/C=C\C/C=C\C/C=C\C/C=C\CCc1ccccc1
6.62

Request: C[C@H](CO)NC(=O)CCC/C=C\C/C=C\C/C=C\C/C=C\CCCCCc1ccccc1
7.12

Request: C[C@H](CO)NC(=O)CCC/C=C\C/C=C\C/C=C\C/C=C\CCCCc1ccccc1
7.88

Request: C[C@H](CO)NC(=O)CCC/C=C\C/C=C\C/C=C\C/C=C\CCCCc1cccc(C(F)(F)F)c1
6.55

Request: C[C@H](CO)NC(=O)CCC/C=C\C/C=C\C/C=C\C/C=C\CCCCc1ccco1
6.49

----------
- target under test: Cannabinoid receptor 2 (Mus musculus)
- Sequence (P47936 whole entry): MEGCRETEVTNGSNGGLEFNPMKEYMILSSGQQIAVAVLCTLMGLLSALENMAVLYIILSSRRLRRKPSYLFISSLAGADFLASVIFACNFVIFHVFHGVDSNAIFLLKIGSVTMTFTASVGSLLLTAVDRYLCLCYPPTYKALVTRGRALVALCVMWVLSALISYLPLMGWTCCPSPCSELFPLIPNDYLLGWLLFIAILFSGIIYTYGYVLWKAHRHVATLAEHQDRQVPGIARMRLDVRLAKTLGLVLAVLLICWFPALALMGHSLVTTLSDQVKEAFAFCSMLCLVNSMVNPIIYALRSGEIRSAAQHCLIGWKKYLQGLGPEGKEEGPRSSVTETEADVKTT
readout name: Ki (nM)
Give the number; nM is assumed, so skip it.

Give its Ki value. Item: C[C@H](CO)NC(=O)CCC/C=C\C/C=C\C/C=C\C/C=C\CCCCCc1ccccc1
241

Request: Cc1cccc(CCCC/C=C\C/C=C\C/C=C\C/C=C\CCCC(=O)N[C@H](C)CO)c1
840

Request: C[C@H](CO)NC(=O)CCC/C=C\C/C=C\C/C=C\C/C=C\CCCc1ccccc1
534

Request: C[C@H](CO)NC(=O)CCC/C=C\C/C=C\C/C=C\C/C=C\CCCCCc1ccco1
3260

Request: C[C@H](CO)NC(=O)CCC/C=C\C/C=C\C/C=C\C/C=C\CCCCc1ccccc1
1120

Request: C[C@H](CO)NC(=O)CCC/C=C\C/C=C\C/C=C\C/C=C\CCCCc1ccco1
750

Request: C[C@H](CO)NC(=O)CCC/C=C\C/C=C\C/C=C\C/C=C\CCCCc1cccc(I)c1
1560

Request: C[C@H](CO)NC(=O)CCC/C=C\C/C=C\C/C=C\C/C=C\CCCCc1ccc(Br)cc1
250

Request: C[C@H](CO)NC(=O)CCC/C=C\C/C=C\C/C=C\C/C=C\Cc1ccccc1
826

Request: C[C@H](CO)NC(=O)CCC/C=C\C/C=C\C/C=C\C/C=C\CCCCc1ccoc1
1030

Request: C[C@H](CO)NC(=O)CCC/C=C\C/C=C\C/C=C\C/C=C\CCc1ccccc1
335

Request: C[C@H](CO)NC(=O)CCC/C=C\C/C=C\C/C=C\C/C=C\CCCCc1cccc(Br)c1
1050

Request: C[C@H](CO)NC(=O)CCC/C=C\C/C=C\C/C=C\C/C=C\CCCCc1cccc(Cl)c1
605

Request: C[C@H](CO)NC(=O)CCC/C=C\C/C=C\C/C=C\C/C=C\CCCCc1cccc2ccccc12
4000

Request: C[C@H](CO)NC(=O)CCC/C=C\C/C=C\C/C=C\C/C=C\CCCCc1cccc(C(F)(F)F)c1
2040

Request: C[C@H](CO)NC(=O)CCC/C=C\C/C=C\C/C=C\C/C=C\CCCCCc1ccoc1
869

----------
- target under test: Cannabinoid receptor 1 (Rattus norvegicus, UniProt P20272)
pKi: −log10 of the molar value.
Decide using pKi: a value greater than or equal to 7 is True, a smaller one is False.

Hi, just wondering whether C[C@H](CO)NC(=O)CCC/C=C\C/C=C\C/C=C\C/C=C\CCCCc1ccoc1 shows pKi of 7 or higher.
True

Request: C[C@H](CO)NC(=O)CCC/C=C\C/C=C\C/C=C\C/C=C\Cc1ccccc1
False

Request: C[C@H](CO)NC(=O)CCC/C=C\C/C=C\C/C=C\C/C=C\CCCCCc1ccco1
False

Request: C[C@H](CO)NC(=O)CCC/C=C\C/C=C\C/C=C\C/C=C\CCCCc1ccccc1Br
False

Request: C[C@H](CO)NC(=O)CCC/C=C\C/C=C\C/C=C\C/C=C\CCCCc1cccc(I)c1
False

Provenance of the data: ChEMBL document CHEMBL1151792
